test_details: Inhibition of recombinant rat GCH1 assessed as reduction in 7,8-dihydroneoptrein 3'-triphosphate formation using GTP as substrate incubated for 15 mins by HPLC and fluorescence detection assay
property_label: pIC50
Here pIC50 is given on a logarithmic scale as minus log10 of the concentration in mol/L.

Short answer for Nc1nc2[nH]c(S)nc2c(=O)[nH]1 : pIC50 was 4.62
